# assayed_system: Nicotinamide phosphoribosyltransferase (Mus musculus, UniProt Q99KQ4)
# Sequence (Q99KQ4 whole entry): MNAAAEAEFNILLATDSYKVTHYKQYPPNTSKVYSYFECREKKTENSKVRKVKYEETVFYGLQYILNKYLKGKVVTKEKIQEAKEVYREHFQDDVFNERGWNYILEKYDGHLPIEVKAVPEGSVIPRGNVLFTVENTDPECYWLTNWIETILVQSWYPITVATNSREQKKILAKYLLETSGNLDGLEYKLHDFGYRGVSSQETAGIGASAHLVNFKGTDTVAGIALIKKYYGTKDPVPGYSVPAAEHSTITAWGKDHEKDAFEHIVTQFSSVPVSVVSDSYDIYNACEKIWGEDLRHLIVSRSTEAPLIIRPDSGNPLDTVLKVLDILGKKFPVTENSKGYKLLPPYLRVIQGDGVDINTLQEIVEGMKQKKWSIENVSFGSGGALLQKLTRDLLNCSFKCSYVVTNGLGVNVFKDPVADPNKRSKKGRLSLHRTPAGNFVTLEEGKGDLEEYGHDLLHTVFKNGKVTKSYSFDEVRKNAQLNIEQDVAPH
# assay_text: Inhibition of NAMPT in mouse cells assessed as reduction in NAD level after 48 hrs by mass spectrometry
pEC50: −log10 of the molar value.
experimental_readout: pEC50

INSERT INTO assay_data (smiles, assayed_system, val) VALUES
  ('O=C(NCc1ccc(S(=O)(=O)c2cc(F)cc(F)c2)cc1)c1ccc2nccn2c1', 'Nicotinamide phosphoribosyltransferase (Mus musculus, UniProt Q99KQ4)', 8.89),
  ('O=C(NCc1ccc(S(=O)(=O)c2cccc(C(F)(F)F)c2)cc1)c1cnc2[nH]ncc2c1', 'Nicotinamide phosphoribosyltransferase (Mus musculus, UniProt Q99KQ4)', 7.15);

====

# assay_text: Half life in NCR nude mouse at 5 mg/kg, iv
# Format: ADME, organism-based
# Parameters: dose 5 mg/kg, route intravenous
# condition: in vivo
experimental_readout: half-life (h)

INSERT INTO measurements (smiles, val) VALUES
  ('O=C(NCc1ccc(S(=O)(=O)c2cccc(C(F)(F)F)c2)cc1)c1cnc2[nH]ncc2c1', 2.6);

====

Nicotinamide phosphoribosyltransferase (Mus musculus): recorded pIC50 for assorted molecules
pIC50: −log10 of the molar value.
experimental_readout: pIC50

INSERT INTO measurements (smiles, assayed_system, experimental_readout, val) VALUES
  ('O=C(NCc1ccc(S(=O)(=O)c2cc(F)cc(F)c2)cc1)c1ccc2nccn2c1', 'Nicotinamide phosphoribosyltransferase (Mus musculus)', 'pIC50', 7.62),
  ('O=C(NCc1ccc(S(=O)(=O)c2cccc(C(F)(F)F)c2)cc1)c1cnc2[nH]ncc2c1', 'Nicotinamide phosphoribosyltransferase (Mus musculus)', 'pIC50', 7.23);

====

# assay_text: Ratio of drug level in retina to plasma of Sprague-Dawley rat at 30 mg/kg, po qd for 2 days measured 6.5 hrs after last dose
experimental_readout: Kp at 6.5 h

INSERT INTO measurements (smiles, val) VALUES
  ('O=C(NCc1ccc(S(=O)(=O)c2cccc(C(F)(F)F)c2)cc1)c1cnc2[nH]ncc2c1', 0.093);

====

# assay_text: Ratio of drug level in retina to plasma of Sprague-Dawley rat at 30 mg/kg, po qd for 2 days measured 1 hr after last dose
experimental_readout: Kp at 1 h

INSERT INTO assay_data (smiles, experimental_readout, val) VALUES
  ('O=C(NCc1ccc(S(=O)(=O)c2cccc(C(F)(F)F)c2)cc1)c1cnc2[nH]ncc2c1', 'Kp at 1 h', 0.071);

====

# assay_text: Antiproliferative activity against human Calu6 cells assessed as cell viability after 96 hrs by CyQuant staining-based assay
# Type: functional
# condition: Calu-6, 96 h
pIC50: −log10 of the molar value.
experimental_readout: pIC50

INSERT INTO assay_data (smiles, val) VALUES
  ('O=C(NCc1ccc(S(=O)(=O)c2cccc(C(F)(F)F)c2)cc1)c1cnc2[nH]ncc2c1', 7.68);

====

Observed IC50 values for Nicotinamide phosphoribosyltransferase (Rattus norvegicus) are listed in what follows.
experimental_readout: IC50 (nM)

INSERT INTO results (smiles, experimental_readout, measure_unit, val) VALUES
  ('O=C(NCc1ccc(S(=O)(=O)c2cccc(C(F)(F)F)c2)cc1)c1cnc2[nH]ncc2c1', 'IC50', 'nM', 35),
  ('O=C(NCc1ccc(S(=O)(=O)c2cc(F)cc(F)c2)cc1)c1ccc2nccn2c1', 'IC50', 'nM', 23);
